Would you mind telling me the reported INDUCTION OF 5-HT1A RELATED SYNDROME Total score of each entry?
- Tested on: 5-HT1A receptors
- experiment: Behavioral syndrome: induction of 5-HT1A related syndrome
- Assay type: in vivo, rat
- Parameters: key: sum of symptom scores per rat within 50 min
- assay-conditions: dose 8 mg/kg/ip; within 50 min; mean ± s.e. from 4 rats
Give bare numbers.

Use these answered entries as a reference point.
O=c1[nH]c2ccccc2n1CCCCN1CCN(c2cccc(Cl)c2)CC1 | 0.8
Cn1c(=O)n(CCCCN2CCN(c3cccc(Cl)c3)CC2)c2ccccc21 | 1.5
COc1ccccc1N1CCN(CCCn2c(=O)[nH]c3ccccc32)CC1 | 3.0

# context switch: different compound, same INDUCTION OF 5-HT1A RELATED SYNDROME Total score
Consider COc1ccc2[nH]c(=O)n(CCCCN3CCN(c4ccccc4OC)CC3)c2c1 . Its measured INDUCTION OF 5-HT1A RELATED SYNDROME Total score is 4.3

====

- tested-target: 5-HT2 receptor (Rattus norvegicus, UniProt P14842)
- Sequence (P14842 whole entry): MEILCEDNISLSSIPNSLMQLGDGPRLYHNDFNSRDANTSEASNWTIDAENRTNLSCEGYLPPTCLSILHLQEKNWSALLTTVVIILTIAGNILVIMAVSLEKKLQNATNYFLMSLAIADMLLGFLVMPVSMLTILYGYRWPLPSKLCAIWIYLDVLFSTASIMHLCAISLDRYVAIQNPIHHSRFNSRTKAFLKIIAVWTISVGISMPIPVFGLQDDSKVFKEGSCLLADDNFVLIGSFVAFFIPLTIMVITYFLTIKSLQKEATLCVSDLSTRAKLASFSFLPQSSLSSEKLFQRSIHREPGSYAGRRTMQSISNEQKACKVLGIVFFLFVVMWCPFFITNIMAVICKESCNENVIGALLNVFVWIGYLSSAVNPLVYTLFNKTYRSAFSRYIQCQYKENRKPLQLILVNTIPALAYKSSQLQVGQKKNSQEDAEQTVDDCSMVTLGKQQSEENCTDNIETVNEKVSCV
assay-readout: pKi
Answers are plain numbers, as −log10 of the molar value.

Use these answered entries as a reference point.
COc1ccc2[nH]c(=O)n(CCCCN3CCN(c4ccccc4OC)CC3)c2c1 | 7.19
Cn1c(=O)n(CCCCN2CCN(c3cccc(Cl)c3)CC2)c2ccccc21 | 8.10
O=c1[nH]c2ccccc2n1CCCCN1CCN(c2cccc3ccccc23)CC1 | 8.15

# context switch: different compound, same pKi
Consider O=c1[nH]c2ccccc2n1CCCCN1CCN(c2cccc(C(F)(F)F)c2)CC1 . Its measured pKi is 8.02

====

A short record of log10 of Ki observed with 5-HT2 receptor (Rattus norvegicus, UniProt P14842) follows.
For clarity, the numbers are log10 values of Ki expressed in nM.

Use these answered entries as a reference point.
CCn1c(=O)n(CCCCCCN2CCN(c3cccc(C(F)(F)F)c3)CC2)c2ccccc21 [Compound 13] | 1.18
COc1ccccc1N1CCN(CCCn2c(=O)[nH]c3ccccc32)CC1 [Compound 10] | 1.48
Cn1c(=O)n(CCCCN2CCN(c3cccc(C(F)(F)F)c3)CC2)c2ccccc21 [Compound 9] | 1.15

# map each compound to its log10 of Ki
1. COc1ccccc1N1CCN(CCCCn2c(=O)[nH]c3ccccc32)CC1 [Compound 1]
2. O=c1[nH]c2ccccc2n1CCCCN1CCN(c2cccc(Cl)c2)CC1 [Compound 4]
3. COc1ccc2[nH]c(=O)n(CCCCN3CCN(c4cccc(C(F)(F)F)c4)CC3)c2c1 [Compound 25]
4. CC(C)n1c(=O)n(CCCCN2CCN(c3cccc(C(F)(F)F)c3)CC2)c2ccccc21 [Compound 15]
5. O=c1[nH]c2ccccc2n1CCCN1CCN(c2cccc(C(F)(F)F)c2)CC1 [Compound 18]

Given back:
[1.56, 0.15, 1.40, 1.30, 0.60]

====

Would you mind telling me the reported Ki of each entry?
- tested-target: 5-HT1A receptor (Rattus norvegicus, UniProt P19327)
- Sequence (P19327 1-422): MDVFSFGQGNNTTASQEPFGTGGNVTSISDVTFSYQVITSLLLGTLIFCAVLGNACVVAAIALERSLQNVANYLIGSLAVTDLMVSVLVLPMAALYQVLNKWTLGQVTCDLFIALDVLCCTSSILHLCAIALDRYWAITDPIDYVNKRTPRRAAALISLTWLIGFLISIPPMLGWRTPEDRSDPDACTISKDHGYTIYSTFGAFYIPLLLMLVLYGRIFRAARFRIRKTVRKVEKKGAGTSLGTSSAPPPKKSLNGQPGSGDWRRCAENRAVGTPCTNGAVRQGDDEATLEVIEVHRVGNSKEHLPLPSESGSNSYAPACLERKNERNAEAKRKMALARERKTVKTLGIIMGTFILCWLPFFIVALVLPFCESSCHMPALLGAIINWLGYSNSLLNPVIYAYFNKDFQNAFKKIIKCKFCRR
One number for each entry, in nM.

O=c1[nH]c2ccccc2n1CCCCN1CCN(c2cccc(C(F)(F)F)c2)CC1 | 53
Cn1c(=O)n(CCCCN2CCN(c3cccc(C(F)(F)F)c3)CC2)c2ccccc21 | 23
O=c1[nH]c2ccccc2n1CCCCN1CCN(c2cccc(Cl)c2)CC1 | 74

# context switch: different compound, same Ki
Consider COc1ccccc1N1CCN(CCCCn2c(=O)[nH]c3ccccc32)CC1 . Its measured Ki is 13
